# Method: Human HepG2 cell viability assay in 384 well format
# Type: toxicity, cell-based
# Parameters: dose 125 nL, time 70.5 hour; concentration not given beside the values
# Assay conditions: HepG2 cells, read-out: Inhibition
Measurement label: cytotoxicity at 70.5 h

[[record]]
compound = "CCCSc1nn(CCN(C)C)c2nc3sc(C)c(CC)c3c(=O)n12"
measurement_label = "cytotoxicity at 70.5 h"
value_reported = "32.5%"

[[record]]
compound = "Cc1ccc(CN(CCCn2ccnc2)Cc2ccccc2O)s1"
measurement_label = "cytotoxicity at 70.5 h"
value_reported = "3.23%"

[[record]]
compound = "O=C(C1CC1)N1CCN2C[C@@H](CO)[C@H](c3ccccc3)[C@H]2C1"
measurement_label = "cytotoxicity at 70.5 h"
value_reported = "8.58%"

[[record]]
compound = "COCC1CCN(C(=O)c2cn(Cc3ccccc3C(F)(F)F)nn2)C1 (stereo not drawn)"
measurement_label = "cytotoxicity at 70.5 h"
value_reported = "-21.7%"

[[record]]
compound = "CS(=O)(=O)N1CCC2(CC1)CC(OCC1CCOCC1)CO2 (stereo not drawn)"
measurement_label = "cytotoxicity at 70.5 h"
value_reported = "-7.58%"

[[record]]
compound = "COCCN1CCC2(CC1)CN(C(=O)Cc1cccnc1)CCO2"
measurement_label = "cytotoxicity at 70.5 h"
value_reported = "-5.95%"

[[record]]
compound = "CCN(C)CC(=O)N1CCN(Cc2ccccc2)[C@@H]2CS(=O)(=O)C[C@@H]21"
measurement_label = "cytotoxicity at 70.5 h"
value_reported = "2.14%"

[[record]]
compound = "O=C(NCc1cccc(F)c1)NC1CCCN(c2ncccn2)C1 (stereo not drawn)"
measurement_label = "cytotoxicity at 70.5 h"
value_reported = "-9.75%"

[[record]]
compound = "CCC1CN(Cc2ccccc2)CCN1Cc1nnc(C2CCC2)o1 (stereo not drawn)"
measurement_label = "cytotoxicity at 70.5 h"
value_reported = "-0.161%"

[[record]]
compound = "Cc1noc(C)c1CN1CC[C@H]2OCC[C@@]2(C(=O)NC2CCCC2)C1"
measurement_label = "cytotoxicity at 70.5 h"
value_reported = "-9.16%"

[[record]]
compound = "CO[C@@H]1CC[C@H]2[C@H]1OCCN2CC1CC1"
measurement_label = "cytotoxicity at 70.5 h"
value_reported = "-83.7%"

[[record]]
compound = "COc1cccc(OCc2nnc3n2N=C(C(C)(C)C)CS3)c1"
measurement_label = "cytotoxicity at 70.5 h"
value_reported = "-8.92%"

[[record]]
compound = "CNCc1cn(C2CCN(C(=O)NCc3ccco3)CC2)nn1"
measurement_label = "cytotoxicity at 70.5 h"
value_reported = "-8.5%"

[[record]]
compound = "CN1C(=O)C(c2cccnc2)CC12CCN(C(=O)c1cccn1C)CC2 (stereo not drawn)"
measurement_label = "cytotoxicity at 70.5 h"
value_reported = "-10.3%"

[[record]]
compound = "COc1nn(C)c2c1CCCN(C(=O)c1ccccc1F)C2"
measurement_label = "cytotoxicity at 70.5 h"
value_reported = "-95.9%"

[[record]]
compound = "CC(C)n1[nH]c(=O)c2c1NC(=O)CC2c1ccc(S(C)(=O)=O)cc1 (stereo not drawn)"
measurement_label = "cytotoxicity at 70.5 h"
value_reported = "-17.1%"

[[record]]
compound = "CCCSCC(=O)N1C[C@@H]2CC[C@H](C1)N(Cc1ccccn1)C2=O"
measurement_label = "cytotoxicity at 70.5 h"
value_reported = "-5.83%"

[[record]]
compound = "CC(C)NC(=O)c1csc(NC2CC2)n1"
measurement_label = "cytotoxicity at 70.5 h"
value_reported = "0.174%"

[[record]]
compound = "Cc1nc(N2CCCC(OCc3ccccn3)C2)c2c(C)noc2n1 (stereo not drawn)"
measurement_label = "cytotoxicity at 70.5 h"
value_reported = "-9.19%"

[[record]]
compound = "CSc1ncc(CNC(C)c2cnn(-c3ccc(F)cc3F)c2C)cn1 (stereo not drawn)"
measurement_label = "cytotoxicity at 70.5 h"
value_reported = "-2.86%"

[[record]]
compound = "O=C(c1ccc2c(c1)[nH]c(=O)n2C1CCCC1)N1CCSCC1"
measurement_label = "cytotoxicity at 70.5 h"
value_reported = "-4.63%"

[[record]]
compound = "COCCn1ccc(NC(=O)CNC(=O)CC(C)(C)C)n1"
measurement_label = "cytotoxicity at 70.5 h"
value_reported = "27.5%"

[[record]]
compound = "Cc1ccc(F)c(OC2(C(=O)O)CCN(C(=O)c3ccco3)CC2)c1"
measurement_label = "cytotoxicity at 70.5 h"
value_reported = "-7.46%"


###

cytotoxicity at 70.5 h values by entry
# Method: Human HepG2 cell viability assay in 384 well format
# Type: toxicity, cell-based
# Parameters: dose 125 nL, time 70.5 hour; concentration not given beside the values
# Assay conditions: HepG2 cells, read-out: Inhibition
Measurement label: cytotoxicity at 70.5 h (%)

[[record]]
compound = "COc1ccc(SC(C)C(=O)N2CCC(O)CC2)cc1 (stereo unspecified)"
value_reported = -4.3

[[record]]
compound = "CCCn1nnc(NCc2ccc(-c3ccc(Br)cc3)o2)n1"
value_reported = -11.9

[[record]]
compound = "CCN(CC1CCCO1)S(=O)(=O)N1CCCCCC1 (stereo unspecified)"
value_reported = -8.65

[[record]]
compound = "O=C1CC(c2cccnc2)C2(CCN(C(=O)N3CCOCC3)CC2)N1 (stereo unspecified)"
value_reported = -12.4

[[record]]
compound = "Cc1cc(NC2CC3(CCN(Cc4ncccc4F)C3)C2)ncn1 (stereo unspecified)"
value_reported = -3.79

[[record]]
compound = "N#Cc1cccc(CN2C[C@@H](F)[C@@H](OCc3nc4ccccc4[nH]3)C2)c1"
value_reported = -2.32


###

# Method: Human HepG2 cell viability assay in 384 well format
# Format: toxicity, cell-based
# Design: dose 125 nL, time 70.5 hour; concentration not given beside the values
# Assay conditions: HepG2 cells, read-out: Inhibition
Measurement label: cytotoxicity at 70.5 h (%)

[[record]]
compound = "CN(Cc1ncnn1C1Cc2ccccc2C1)C1CCS(=O)(=O)C1 (stereo unspecified)"
measurement_label = "cytotoxicity at 70.5 h"
value_reported = -2.74

[[record]]
compound = "COc1ccc(NC(=O)Nc2cnc(N3CCN(C)CC3)nc2)cc1Cl"
measurement_label = "cytotoxicity at 70.5 h"
value_reported = -0.129

[[record]]
compound = "Cc1ccc(CN2C[C@H](N(C)Cc3cncnc3)[C@H]3OCCC[C@H]32)o1"
measurement_label = "cytotoxicity at 70.5 h"
value_reported = -10.1

[[record]]
compound = "CCOc1ccc(C(=O)N2CCCC2Cn2cc(C)cn2)cn1 (stereo unspecified)"
measurement_label = "cytotoxicity at 70.5 h"
value_reported = -5.61

[[record]]
compound = "Cc1noc(C)c1CN(C)C(=O)c1ccc2c(c1O)OC(C)(C)C2"
measurement_label = "cytotoxicity at 70.5 h"
value_reported = 1.38

[[record]]
compound = "Cc1cc(CN2CCN(CC(O)c3ccc(C)c(C)c3)CC2)no1 (stereo unspecified)"
measurement_label = "cytotoxicity at 70.5 h"
value_reported = -7.74

[[record]]
compound = "Cn1nc(C(=O)N2CCCCCC2)cc1NC(=O)c1ccccc1"
measurement_label = "cytotoxicity at 70.5 h"
value_reported = -9.93

[[record]]
compound = "CC(=O)N1CCc2c(nc(-c3cccnc3)nc2N(C)CC(O)CO)C1 (stereo unspecified)"
measurement_label = "cytotoxicity at 70.5 h"
value_reported = -6.57

[[record]]
compound = "CSc1ccccc1CN1CCn2nc(CNC(=O)N(C)C)cc2C1"
measurement_label = "cytotoxicity at 70.5 h"
value_reported = -8.7

[[record]]
compound = "COc1ccc2c(CN3CCN(Cc4cccc(F)c4)CC3)n[nH]c2c1"
measurement_label = "cytotoxicity at 70.5 h"
value_reported = -3.1

[[record]]
compound = "Cc1nc(-c2cccc(N3CCC(N4CCCC(C#N)C4)CC3)c2)cs1 (stereo unspecified)"
measurement_label = "cytotoxicity at 70.5 h"
value_reported = 22.1


###

The entries below come with measured cytotoxicity at 70.5 h values attached.
# Method: Human HepG2 cell viability assay in 384 well format
# Format: toxicity, cell-based
# Set-up: dose 125 nL, time 70.5 hour; concentration not given beside the values
# Assay conditions: HepG2 cells, read-out: Inhibition
Measurement label: cytotoxicity at 70.5 h (%)

[[record]]
compound = "O=C(c1ccccc1)N1CC[C@H]2C[C@H](c3nnc(C4CC4)o3)O[C@@H]2C1"
measurement_label = "cytotoxicity at 70.5 h"
unit_string = "%"
value_reported = -9.97

[[record]]
compound = "Cc1cc(C(=O)N2CCc3nc(N4CCOCC4)nc(C)c3C2)c(C)o1"
measurement_label = "cytotoxicity at 70.5 h"
unit_string = "%"
value_reported = -6.78

[[record]]
compound = "CC(=O)N1CCOCC(Cc2ccc3c(ccn3C)c2)C1 (stereo not given)"
measurement_label = "cytotoxicity at 70.5 h"
unit_string = "%"
value_reported = -0.747

[[record]]
compound = "CN(C)[C@@H]1CCN(C(=O)Cc2cccs2)[C@H]1Cc1cnn(C)c1"
measurement_label = "cytotoxicity at 70.5 h"
unit_string = "%"
value_reported = -8.18

[[record]]
compound = "Cc1n[nH]c(C)c1C1CCCN1C(=O)NCC(=O)NC(C)(C)C (stereo not given)"
measurement_label = "cytotoxicity at 70.5 h"
unit_string = "%"
value_reported = -2.7

